# Test system: 454973-116-R2-J3-PDC spheroids, viability, % test/control;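 note: spheroids exposed to compounds for seven days; 100% = DMSO vehicle control viability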
# assayComment: Anticancer human tumor 454973-116-R2-J3-PDC patient-derived pancreatic carcinoma cell line growth inhibition [GQUAD]
# conditions: second compound 10 µM; first compound 1 µM; active compounds read low; spheroids with HUVEC and MSC
# Excerpt: DNA G-quadruplex Stabilizer Agents in Combinations in Complex Spheroids A high-throughput screen of multi-cell type tumor spheroids was designed to identify active combinations of DNA G-quadruplex stabilizer agents and targeted small molecules. […] Compounds. […] If the clinical Cmax for an agent had not been determined, the highest concentration tested was 10 microM. […]
measuredEndpoint: viability, T/C

{"columns": ["molecule", "viability, T/C"],
 "data": [
  ["COc1ncnc(C2CC2)c1-c1ncc2cnn(Cc3ccc(-c4nc(C(F)(F)F)cn4C(C)C)cc3)c2n1 + CN(C)c1ccc(Nc2c3ccc(NC(=O)CCN4CCCC4)cc3nc3cc(NC(=O)CCN4CCCC4)ccc23)cc1", "66.5%"]
]}

[Q] Look up viability, T/C: COc1ncnc(C2CC2)c1-c1ncc2cnn(Cc3ccc(-c4nc(C(F)(F)F)cn4C(C)C)cc3)c2n1 + Cc1[nH]c2ccc(F)cc2c1-c1nc2c3cccnc3c3ncccc3c2[nH]1
[A] 86.8%

[Q] Which value of viability, T/C has been reported for O=C(c1cc(Cc2n[nH]c(=O)c3ccccc23)ccc1F)N1CCN(C(=O)C2CC2)CC1 + Cc1cnc(CNC(=O)c2c(=O)c3ccc(N4CCCN(C)CC4)nc3n3c2sc2ccccc23)cn1 in the records?
[A] 35.9%

[Q] I am curious: what viability, T/C value has been reported for CC(C)(O)C1CCC(Nc2ccc3ncc(-c4cccc(C(F)(F)F)c4)n3n2)CC1 (configuration not stated) + Cc1[nH]c2ccc(F)cc2c1-c1nc2c3cccnc3c3ncccc3c2[nH]1 ?
[A] 59.6%

[Q] So what's the measured viability, T/C for this one? Nc1ccn(C2OC(CO)C(O)C2(F)F)c(=O)n1 (configuration not stated) + Cc1[nH]c2ccc(F)cc2c1-c1nc2c3cccnc3c3ncccc3c2[nH]1
[A] 17%

[Q] Quick check: viability, T/C of CC1COCCN1c1cc(C2(S(C)(=N)=O)CC2)nc(-c2ccnc3[nH]ccc23)n1 (configuration not stated) + CN(C)c1ccc(Nc2c3ccc(NC(=O)CCN4CCCC4)cc3nc3cc(NC(=O)CCN4CCCC4)ccc23)cc1 ?
[A] 78.4%

[Q] # lookup: viability, T/C of O=c1[nH]cc(F)c(=O)[nH]1 + CN(C)c1ccc(Nc2c3ccc(NC(=O)CCN4CCCC4)cc3nc3cc(NC(=O)CCN4CCCC4)ccc23)cc1
[A] 64.8%
